Biological target: CypF (Homo sapiens (Human))
Sequence (P30405 30-207): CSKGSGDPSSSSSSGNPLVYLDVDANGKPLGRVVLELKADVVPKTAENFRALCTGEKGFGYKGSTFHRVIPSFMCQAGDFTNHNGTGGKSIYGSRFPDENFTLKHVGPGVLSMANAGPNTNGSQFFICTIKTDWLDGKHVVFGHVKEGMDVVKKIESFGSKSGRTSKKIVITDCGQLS
Experiment: Inhibitor binding to cyclophilin proteins by SPR, CypF
Conditions: 1:1 binding model
Starred links: 1 amine or outer side, 2 acyl side, 3 side chain; linkers in the order of their positions; H or OH if unused. Non-standard residues stand in square brackets, D forms with d. Residues, ends and D or L forms follow the SMILES beside them. NMe(dihydroBmt) = CCCC[C@@H](C)[C@@H](O)[C@H](NC)C(=O)O; X9 = C[C@@H](CN1CCOCC1)[C@@H](C(=O)[*:2])N(C)[*:1]; NMeL = CN[C@@H](CC(C)C)C(=O)O; NMeV = CN[C@H](C(=O)O)C(C)C; dNMeA = CN[C@H](C)C(=O)O; Abu = CC[C@H](N)C(=O)O
endpoint name: CypF Kd
Provide the measurement as a number trailed by its unit.

Which CypF Kd reading was recorded for the compound CCCC[C@@H](C)[C@@H](O)[C@H]1C(=O)N[C@@H](CC)C(=O)N(C)[C@H](C)C(=O)N(C)[C@@H]([C@@H](C)CN2CCOCC2)C(=O)N[C@@H](C(C)C)C(=O)N(C)[C@@H](CC(C)C)C(=O)N[C@@H](C)C(=O)N[C@H](C)C(=O)N(C)[C@@H](CC(C)C)C(=O)N(C)[C@@H](CC(C)C)C(=O)N(C)[C@@H](C(C)C)C(=O)N1C [Compound 2.17.7] (cyclo(A[dA][NMeL][NMeL][NMeV][NMe(dihydroBmt)][Abu][dNMeA][X9]V[NMeL])) ?
0.7 nM
